Target: UniProtKB P43115
Experiment: Cellular in vitro assay for determining EP3 receptor activity (human EP3 cell line, sulprostone-stimulated calcium luminescence)
Settings: CHO cells expressing human EP3 and mitochondrial Clytin; antagonist mode, sulprostone at EC50; read-out: EP3 CHO mtCLY ANTAG IC50
QUANTITY KIND: pIC50
// returns pIC50 (minus log10 of molar concentration), number only

Worked examples, 2 compounds total:
Cc1ccc(-c2cn3nc(C(=O)N[C@H](C)c4ccc(F)cc4)cc3c(=O)[nH]2)cc1Cl [6-81] | 8.55
O=C(NC(c1ccccc1)C(F)F)c1cc2c(=O)[nH]c(-c3ccc4c(c3F)OCCO4)cn2n1 (stereo not shown) [Example 1-110] | 9.00

Q: // pIC50 lookup, key: COC[C@@H](NC(=O)c1nn2cc(-c3ccc(C)c(C)c3)[nH]c(=O)c2c1C#N)c1ccccc1 [Example 1-74]
Ans: 9.04

Q: // pIC50 lookup, key: Cc1ccc(-c2cn3nc(C(=O)N[C@H](CN4CC[C@H](F)C4)c4ccccc4)cc3c(=O)[nH]2)cc1F [6-643]
Ans: 8.71

Q: // pIC50 lookup, key: O=C(N[C@H]1c2ccccc2C[C@H]1O)c1cc2c(=O)[nH]c(-c3ccc4ccccc4c3)cn2n1 [6-72]
Ans: 8.10

Q: // pIC50 lookup, key: Cc1ccc(-c2cn3nc(C(=O)N[C@@H](c4ccc(F)cc4)C(F)(F)CO)c(C(F)(F)F)c3c(=O)[nH]2)cc1Cl [6-157]
Ans: 9.04

Q: // pIC50 lookup, key: Cc1ccc(-c2cn3nc(C(=O)NCC(O)C(F)(F)F)c(C(F)(F)F)c3c(=O)[nH]2)cc1C (single isomer, unassigned) [6-117]
Ans: 8.41

====

Biological target: human EP3 receptor (Homo sapiens, UniProt P43115)
Construct: expressed in transfected cells; host or cells: CHO K1 (Chinese Hamster Ovary), stably co-transfected with Galpha16 and mitochondrial clytin
Sequence (P43115 1-390): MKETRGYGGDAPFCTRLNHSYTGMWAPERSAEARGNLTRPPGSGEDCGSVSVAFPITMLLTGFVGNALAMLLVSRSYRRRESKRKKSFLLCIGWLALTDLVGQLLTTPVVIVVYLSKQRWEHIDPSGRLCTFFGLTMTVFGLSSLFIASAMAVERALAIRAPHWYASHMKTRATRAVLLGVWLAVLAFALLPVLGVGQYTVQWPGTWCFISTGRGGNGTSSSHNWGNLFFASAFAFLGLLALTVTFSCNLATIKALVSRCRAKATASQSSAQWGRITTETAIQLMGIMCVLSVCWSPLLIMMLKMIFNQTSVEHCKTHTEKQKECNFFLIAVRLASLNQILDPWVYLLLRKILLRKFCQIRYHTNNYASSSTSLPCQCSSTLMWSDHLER
Test: Cellular in vitro assay for determining EP3 receptor activity (human EP3 cell line, sulprostone-stimulated calcium luminescence)
Assay type: cell-based
Conditions: CHO cells expressing human EP3 and mitochondrial Clytin; antagonist mode, sulprostone at EC50; read-out: EP3 CHO mtCLY ANTAG IC50
QUANTITY KIND: IC50
Just the number plus its unit, please.

Worked examples, 4 molecules total:
Cc1ccc(-c2cn3nc(C(=O)N[C@@H](c4ccc(F)cc4)C(C)(C)O)c(C4CC(F)(F)C4)c3c(=O)[nH]2)cc1Cl [6-559] | 6.07 nM
CN1CCOc2cc(-c3cn4nc(C(=O)N[C@H](CCO)c5ccc(F)cc5)cc4c(=O)[nH]3)ccc21 [Example 1-37] | 0.95 nM
Cc1ccc(-c2cn3nc(C(=O)NCC(O)C(F)(F)F)c(C4CC4)c3c(=O)[nH]2)cc1Cl (single isomer, unassigned) [6-259] | 0.64 nM
Cc1cccc2ncc(-c3cn4nc(C(=O)NCC(N)=O)c(C(C)C)c4c(=O)[nH]3)cc12 [Example 4-31] | 7.4 nM

Q: // IC50 lookup, key: C[C@H](NC(=O)c1cc2c(=O)[nH]c(-c3ccc4c(c3)N(C)CCO4)cn2n1)c1ccc(F)cc1 [6-83]
Ans: 3.55 nM

Q: // IC50 lookup, key: CC(C)(O)[C@@H](NC(=O)c1nn2cc(-c3cc(Cl)c(Cl)cc3F)[nH]c(=O)c2c1C1CC1)c1ccc(F)cc1 [6-583]
Ans: 0.63 nM

Q: // IC50 lookup, key: Cc1cc(-c2cn3nc(C(=O)NC(C)C4CCC4)c(C(F)(F)F)c3c(=O)[nH]2)ccc1Cl (single isomer, unassigned) [6-223]
Ans: 1.25 nM

====

Target: human EP3 receptor (Homo sapiens)
Sequence (P43115 1-390): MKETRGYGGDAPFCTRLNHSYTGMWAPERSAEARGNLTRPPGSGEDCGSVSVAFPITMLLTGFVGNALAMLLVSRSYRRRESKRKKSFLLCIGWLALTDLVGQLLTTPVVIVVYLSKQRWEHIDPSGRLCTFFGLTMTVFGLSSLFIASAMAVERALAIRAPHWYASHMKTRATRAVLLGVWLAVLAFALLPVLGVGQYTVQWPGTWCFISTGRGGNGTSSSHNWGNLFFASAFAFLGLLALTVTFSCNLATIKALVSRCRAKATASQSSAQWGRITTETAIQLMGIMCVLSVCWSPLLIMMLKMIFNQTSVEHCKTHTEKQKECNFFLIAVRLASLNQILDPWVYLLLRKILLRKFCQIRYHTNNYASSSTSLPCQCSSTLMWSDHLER
Assay: Cellular in vitro assay for determining EP3 receptor activity (human EP3 cell line, sulprostone-stimulated calcium luminescence)
Settings: CHO cells expressing human EP3 and mitochondrial Clytin; antagonist mode, sulprostone at EC50; read-out: EP3 CHO mtCLY ANTAG IC50
Property: pIC50; scope: individual molecules
// returns pIC50 (minus log10 of molar concentration), number only

O=C(NC1(c2ccc(F)cc2)CC1)c1cc2c(=O)[nH]c(-c3ccc4c(c3)OCCO4)cn2n1 [6-23] | 8.51
Cc1c(C(=O)N[C@@H](c2ccc(F)cc2)C(C)(C)O)nn2c(C)c(-c3ccc4ccccc4c3)[nH]c(=O)c12 [6-604] | 8.73
CN1CC(NC(=O)c2nn3cc(-c4ccc5c(c4)OCCO5)[nH]c(=O)c3c2C2CC2)(c2ccc(F)cc2)C1 [6-467] | 8.63
Cc1cc(-c2cn3nc(C(=O)NCC(N)C(F)(F)F)c(C4CC4)c3c(=O)[nH]2)ccc1C(F)(F)F (single isomer, unassigned) [6-132] | 8.12
COCc1c(C(=O)N[C@H](C)c2ccc(OC)nc2)nn2cc(-c3ccc4ccccc4c3)[nH]c(=O)c12 [Example 1-22] | 9.43

Q: // pIC50 lookup, key: Cc1ccc(-c2cn3nc(C(=O)NC4CCN(CC(F)(F)F)C4)c(C4CC4)c3c(=O)[nH]2)cc1F (single isomer, unassigned) [6-390]
Ans: 8.07

Q: // pIC50 lookup, key: Cc1ccc(-c2cn3nc(C(=O)NCCC(F)(F)F)c(C(F)(F)F)c3c(=O)[nH]2)cc1F [6-148]
Ans: 8.08

====

Target: human EP3 receptor (Homo sapiens, UniProt P43115)
Sequence (P43115 1-390): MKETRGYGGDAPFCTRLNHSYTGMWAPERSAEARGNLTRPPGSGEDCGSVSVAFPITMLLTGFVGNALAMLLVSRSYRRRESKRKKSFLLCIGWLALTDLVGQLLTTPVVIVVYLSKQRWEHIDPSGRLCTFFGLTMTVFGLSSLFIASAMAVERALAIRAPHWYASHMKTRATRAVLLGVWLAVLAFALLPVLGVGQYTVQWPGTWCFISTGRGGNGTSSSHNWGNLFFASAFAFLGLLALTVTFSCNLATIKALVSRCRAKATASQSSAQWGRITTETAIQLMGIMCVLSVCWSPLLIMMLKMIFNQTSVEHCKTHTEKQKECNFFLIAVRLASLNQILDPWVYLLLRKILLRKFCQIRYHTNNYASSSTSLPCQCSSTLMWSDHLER
Assay: Cellular in vitro assay for determining EP3 receptor activity (human EP3 cell line, sulprostone-stimulated calcium luminescence)
Conditions: CHO cells expressing human EP3 and mitochondrial Clytin; antagonist mode, sulprostone at EC50; read-out: EP3 CHO mtCLY ANTAG IC50
Structures can show the parent of a compound that is named as a salt.
QUANTITY KIND: pIC50
// returns pIC50 (minus log10 of molar concentration), number only

Worked examples, 10 compounds total:
Cc1cccc2ncc(-c3cn4nc(C(=O)N[C@@H](C)c5ccccc5)c(C(C)C)c4c(=O)[nH]3)cc12 | 9.17
Cc1cc(-c2cn3nc(C(=O)NC4(c5ccc(F)cc5)CN(C)C4)c(C(F)(F)F)c3c(=O)[nH]2)ccc1Cl | 8.36
Cc1cc(-c2cn3nc(C(=O)N[C@@H](C)C(C)C)c(C(F)(F)F)c3c(=O)[nH]2)ccc1Cl | 8.57
O=C(N[C@H](CN1CCOCC1)c1ccccc1)c1cc2c(=O)[nH]c(-c3ccc4ccccc4c3)cn2n1 [Example 1-7, formic acid salt] | 8.77
CC(C)(C)OC(=O)N1CC(NC(=O)c2cc3c(=O)[nH]c(-c4ccc5c(c4)OCCO5)cn3n2)(c2ccc(F)cc2)C1 | 8.47
Cc1ccc(-c2cn3nc(C(=O)N[C@H](C)C(C)C)c(C4CC4)c3c(=O)[nH]2)cc1Cl | 8.89
Cc1ccc(-c2cn3nc(C(=O)N[C@@H](c4ccc(F)cc4)C(C)(C)O)c(C(F)(F)C(F)(F)F)c3c(=O)[nH]2)cc1F | 8.74
CC(C)(O)[C@@H](NC(=O)c1cc2c(=O)[nH]c(-c3ccc4ccccc4c3)cn2n1)c1ccc(F)cc1 | 8.81
Cc1cc(-c2cn3nc(C(=O)NC(c4ccc(F)cc4)C4(O)CC4)c(C4CC4)c3c(=O)[nH]2)ccc1F (single isomer, unassigned) [6-651] | 9.00
Cc1c(C(=O)N[C@@H](C)c2ccccc2)nn2c(C)c(-c3ccc4ccccc4c3)[nH]c(=O)c12 | 8.63

Q: Identify the measured pIC50 of Cc1ccc(-c2cn3nc(C(=O)NC4(c5ccc(F)cc5)CN(C)C4)c(C4CC4)c3c(=O)[nH]2)cc1C for human EP3 receptor (Homo sapiens, UniProt P43115).
Ans: 8.66

Q: Identify the measured pIC50 of Cc1ccc(-c2cn3nc(C(=O)N[C@@H](c4ccccc4)C(C)(C)O)c(C(F)(F)F)c3c(=O)[nH]2)cc1F for human EP3 receptor (Homo sapiens, UniProt P43115).
Ans: 8.36

Q: Identify the measured pIC50 of CC(NC(=O)c1cc2c(=O)[nH]c(-c3ccc4ccccc4c3)cn2n1)c1ccc(C(C)(C)C)cc1 (centres unmarked) for human EP3 receptor (Homo sapiens, UniProt P43115).
Ans: 8.50

Q: Identify the measured pIC50 of Cc1cc(-c2cn3nc(C(=O)N[C@@H](c4ccc(F)cc4)C(F)(F)CO)c(C4CC4)c3c(=O)[nH]2)ccc1Cl for human EP3 receptor (Homo sapiens, UniProt P43115).
Ans: 9.07
